Experiment: Solubility in CHCl3, DCM and DMSO by SFC/UV
Assay type: physicochemical
Conditions: dimethyl sulfoxide (DMSO), organic solvent or mixture, thermodynamic from solid; room temperature, tested up to 50 mg/mL; read-out: solubility in DMSO

compound	solubility at 10 min
C[S@+]([O-])C(=O)N1CCC(O)CC1 [Example 1-11B]	> 50 mg/mL

----------
Assay: Solubility in CHCl3, DCM and DMSO by SFC/UV
Assay type: physicochemical
Details: chloroform (CHCl3), organic solvent or mixture, thermodynamic from solid; room temperature, SFC/UV; read-out: solubility in CHCl3

compound	solubility at 10 min
C[S@+]([O-])C(=O)N1CCC(O)CC1 [Example 1-11B]	12.4 mg/mL

----------
Assay: Solubility in CHCl3, DCM and DMSO by SFC/UV
Format: physicochemical
Settings: dichloromethane (DCM), organic solvent or mixture, thermodynamic from solid; room temperature, SFC/UV; read-out: solubility in DCM
Method: The solubility in chloroform (CHCl3), dichloromethane (DCM) and dimethyl sulfoxide (DMSO) was determined at room temperature up to 50 mg/mL by measuring the concentrations of the solutions using SFC/UV. […] Solubility measurement of up to 50 mg/mL in DMSO, CHCl3 and DCM was requested. […] After mixing and sonication, a clear aliquot of each solution was taken, and the concentrations of Example 1-11B in CHCl3 and DCM were measured by SFC/UV using the DMSO solution as a reference.

molecule	solubility at 10 min (mg/mL)
C[S@+]([O-])C(=O)N1CCC(O)CC1 [Example 1-11B]	12.3
